- Tested target: VAV1 (Homo sapiens, UniProt P15498+Q96SW2)
- Construct: A heterozygous VAV1 C-terminal HiBiT knock-in pool was generated at Monte Rosa Therapeutics from a clonal Jurkat cell; endogenous in cells; host or cells: Jurkat clone stably expressing LgBiT, homozygous GSPT1-G575N; heterozygous VAV1-HiBiT knock-in pool
- Procedure summary: VAV1 degradation activity, VAV1-HiBiT knock-in Jurkat luminescence assay (Example A, Table 1)
- Format: cell-based
- Assay conditions: Jurkat, VAV1-HiBiT knock-in Jurkat cells, luminescence read at 6 and 24 hours; read-out: VAV1 Dmax %, class
Measured parameter: Dmax

Compound: Cc1cc(-c2cccc(C3CCC(=O)NC3=O)c2Cl)ccc1OCCN1CCOCC1 (stereo not drawn) [Compound 155]
Readout value: > 90%
//
Compound: O=C1CCC(c2cccc(-c3ccc4c(c3)CC(=O)N4Cc3ncccn3)c2Cl)C(=O)N1 (stereo not drawn) [Compound 393]
Readout value: 60 to 90%
//
Compound: O=C1CCC(c2cccc(-c3ccc(CN4CC5(F)CC(C5)C4=O)cc3)c2Cl)C(=O)N1 (stereo not drawn) [Compound 269]
Readout value: > 90%
//
Compound: O=C1CCC(c2cccc(-c3ccc(N4CCOC4=O)cc3)c2Cl)C(=O)N1 (stereo not drawn) [Compound 212]
Readout value: < 60%
//
Compound: COc1ccc(-c2cccc(C3CCC(=O)NC3=O)c2Cl)cc1OC(F)F (stereo not drawn) [Compound 108]
Readout value: < 60%
//
Compound: O=C1CCC(c2cccc(-c3ccc(N4C(=O)Cc5ccccc54)cc3)c2Cl)C(=O)N1 (stereo not drawn) [Compound 468]
Readout value: > 90%
//
Compound: COC1CCCC(=O)N1c1ccc(-c2cccc(C3CCC(=O)NC3=O)c2Cl)cc1 (stereo not drawn) [Compound 318]
Readout value: > 90%
//
Compound: O=C1CCC(c2cccc(-c3ccc(OCc4ccccn4)cc3)c2Cl)C(=O)N1 (stereo not drawn) [Compound 103]
Readout value: > 90%
//
Compound: CN1CC(=O)N(Cc2ccc(-c3cccc(C4CCC(=O)NC4=O)c3Cl)cc2)CC12COC2 (stereo not drawn) [Compound 259]
Readout value: > 90%
//
Compound: O=C1CCC(c2cccc(-c3cnc(Cn4ccccc4=O)c(F)c3)c2Cl)C(=O)N1 (stereo not drawn) [Compound 412]
Readout value: 60 to 90%
//
Compound: CN(C(=O)c1ccn(C)n1)c1ccc(-c2cccc(C3CCC(=O)NC3=O)c2Cl)cc1 (stereo not drawn) [Compound 475]
Readout value: 60 to 90%
//
Compound: O=C1CCC(c2cc(F)cc(-c3ccc(-n4ccccc4=O)cc3)c2Cl)C(=O)N1 (stereo not drawn) [Compound 361]
Readout value: 60 to 90%
//
Compound: O=C1CCC(c2cccc(-c3ccc(N4CCCCC4)cc3)c2Cl)C(=O)N1 (stereo not drawn) [Compound 459]
Readout value: 60 to 90%
//
Compound: O=C1CCC(c2cccc(-c3ccc(Cc4cocn4)cc3)c2Cl)C(=O)N1 (stereo not drawn) [Compound 442]
Readout value: > 90%
//
Compound: O=C1CCC(c2cccc(-c3ccc(N4CCCCC4C(F)F)cc3)c2Cl)C(=O)N1 (stereo not drawn) [Compound 469]
Readout value: 60 to 90%
//
Compound: O=C1CCC(c2cccc(-c3ccc4c(cnn4Cc4ncccn4)c3)c2Cl)C(=O)N1 (stereo not drawn) [Compound 396]
Readout value: > 90%
//
Compound: O=C1CCC(c2cccc(-c3cccc(COC4CCOC4)c3)c2Cl)C(=O)N1 (stereo not drawn) [Compound 190]
Readout value: < 60%
//
Compound: CC1CCC(=O)N(Cc2ccc(-c3cccc(C4CCC(=O)NC4=O)c3Cl)cc2)C1 (stereo not drawn) [Compound 288]
Readout value: > 90%
//
Compound: O=C1CCC(c2cccc(-c3ccc(N4Cc5cccnc5C4=O)cc3)c2Cl)C(=O)N1 (stereo not drawn) [Compound 465]
Readout value: < 60%
//
Compound: O=C1CCC(c2cccc(-c3ccc(-n4ccccc4=O)cc3)c2F)C(=O)N1 (stereo not drawn) [Compound 234]
Readout value: 60 to 90%
//
Compound: Cn1ccc(COc2ccc(-c3ccc(Cl)c(C4CCC(=O)NC4=O)c3F)cc2)n1 (stereo not drawn) [Compound 145]
Readout value: < 60%
//
Compound: O=C1CCC(c2cccc(-c3ccc(N4C(=O)CCCC45CCC5)cc3)c2Cl)C(=O)N1 (stereo not drawn) [Compound 339]
Readout value: > 90%
//
Compound: O=C1CCC(c2cccc(-c3ccc(C4(n5ccccc5=O)CC4)cc3)c2Cl)C(=O)N1 (stereo not drawn) [Compound 241]
Readout value: 60 to 90%
//
Compound: Cc1nc(Cc2ccc(-c3cccc(C4CCC(=O)NC4=O)c3Cl)cc2)no1 (stereo not drawn) [Compound 473]
Readout value: > 90%
//
Compound: CC1(C)COCC(=O)N1Cc1ccc(-c2cccc(C3CCC(=O)NC3=O)c2Cl)cc1 (stereo not drawn) [Compound 263]
Readout value: 60 to 90%
//
Compound: C[C@H]1COCC(=O)N1c1ccc(-c2cccc(C3CCC(=O)NC3=O)c2Cl)cc1 (stereo partly drawn) [Compound 325]
Readout value: > 90%
//
Compound: Cn1ccc(COc2ccc(-c3cccc(C4CCC(=O)NC4=O)c3Cl)cn2)n1 (stereo not drawn) [Compound 251]
Readout value: 60 to 90%
//
Compound: O=C1CCC(c2cccc(-c3ccc(N4C(=O)CCCC4C(F)(F)F)cc3)c2Cl)C(=O)N1 (stereo not drawn) [Compound 244]
Readout value: > 90%
//
Compound: Nc1nccn1Cc1ccc(-c2cccc(C3CCC(=O)NC3=O)c2Cl)cc1 (stereo not drawn) [Compound 102]
Readout value: 60 to 90%
//
Compound: CC(Oc1ccccn1)c1ccc(-c2cccc(C3CCC(=O)NC3=O)c2Cl)cc1 (stereo not drawn) [Compound 165]
Readout value: > 90%
//
Compound: O=C1CCC(c2cccc(-c3ccc(-c4cccc5ocnc45)cc3)c2Cl)C(=O)N1 (stereo not drawn) [Compound 460]
Readout value: 60 to 90%
//
Compound: O=C1CCC(c2cccc(-c3ccc(N4C(=O)CCC45CC5)nc3)c2Cl)C(=O)N1 (stereo not drawn) [Compound 384]
Readout value: 60 to 90%
//
Compound: O=C1CCC(c2cccc(-c3ccc(Cc4nccc(C5CC5)n4)cc3)c2Cl)C(=O)N1 (stereo not drawn) [Compound 344]
Readout value: > 90%

----------
- Tested target: VAV1 (Homo sapiens, UniProt P15498+Q96SW2)
- Construct: A heterozygous VAV1 C-terminal HiBiT knock-in pool was generated at Monte Rosa Therapeutics from a clonal Jurkat cell; endogenous in cells; host or cells: Jurkat clone stably expressing LgBiT, homozygous GSPT1-G575N; heterozygous VAV1-HiBiT knock-in pool
- Procedure summary: VAV1 degradation activity, VAV1-HiBiT knock-in Jurkat luminescence assay (Example A, Table 1)
- Format: cell-based
- Assay conditions: VAV1-HiBiT knock-in Jurkat cells, luminescence read at 6 and 24 hours; read-out: VAV1 DC50 (nM), class
- Description: Cells were plated at 10,000 cells per well using Multiflo (BioTek) or Multi Drop Combi (Thermo Fisher) in 384-well white solid bottom plates (Corning, 3570BC) in 25 ul volume in RPMI 1640 media (Thermo Fischer, 22400105) containing 10% FBS (Corning, 35-075-CV), 1% Penicillin/Streptomycin (ThermoFisher Scientific, 15140-122), and 1% Endurazine (Nano-Glo Endurazine Live Cell Substrate (Promega, N2571)). Cells were incubated for ˜16 hours at 37° C., 5% CO2. […]

Compound: O=C1CCC(c2cccc(-c3ccc(Oc4ccccn4)cc3)c2Cl)C(=O)N1 (centres unmarked)
Tested target: VAV1 (Homo sapiens, UniProt P15498+Q96SW2)
DC50: ≤ 100 nM

Compound: CN1CC(=O)N(c2ccc(-c3cccc(C4CCC(=O)NC4=O)c3Cl)cc2)c2cnccc21 (centres unmarked)
Tested target: VAV1 (Homo sapiens, UniProt P15498+Q96SW2)
DC50: ≤ 100 nM

Compound: O=C1CCC(c2cccc(-c3ccc(N4CCCCC4=O)nc3)c2Cl)C(=O)N1 (centres unmarked)
Tested target: VAV1 (Homo sapiens, UniProt P15498+Q96SW2)
DC50: 100 to 1000 nM

Compound: CC1(C)COCC(=O)N1c1ccc(-c2cccc(C3CCC(=O)NC3=O)c2Cl)cc1 (centres unmarked)
Tested target: VAV1 (Homo sapiens, UniProt P15498+Q96SW2)
DC50: ≤ 100 nM

Compound: O=C1CCC(c2cccc(-c3ccc(N4C(=O)C[C@@H]5CCC[C@@H]54)cc3)c2Cl)C(=O)N1 (some centres unmarked)
Tested target: VAV1 (Homo sapiens, UniProt P15498+Q96SW2)
DC50: ≤ 100 nM

Compound: O=C1CCC(c2cccc(-c3ccc(CN4Cc5ncccc5C4=O)cc3)c2Cl)C(=O)N1 (centres unmarked)
Tested target: VAV1 (Homo sapiens, UniProt P15498+Q96SW2)
DC50: ≤ 100 nM

Compound: O=C1CCC(c2cccc(-c3ccc(N4CCC(Cn5ccccc5=O)CC4)cc3)c2Cl)C(=O)N1 (centres unmarked)
Tested target: VAV1 (Homo sapiens, UniProt P15498+Q96SW2)
DC50: 100 to 1000 nM

Compound: Cc1cc(-c2cccc(C3CCC(=O)NC3=O)c2Cl)ccc1-n1ccccc1=O (centres unmarked)
Tested target: VAV1 (Homo sapiens, UniProt P15498+Q96SW2)
DC50: > 1000 nM
